# credit: patent US10280134B1

# Tested on: hepatocellular carcinoma cell line HEPG2
# ASSAY REMARKS: MTT cytotoxicity assay on human hepatocellular carcinoma cell line HePG2
# Assay type: cell-based
# ASSAY SETUP: Homo sapiens; HEPG2, positive control, Table 3, Mw = 579.99; read-out: IC50 (positive control)
OBSERVATION TYPE: IC50 (µM)
Numeric only. Scale: µM

Q) Determine from records and report IC50 for COc1cccc2c1C(=O)c1c(O)c3c(c(O)c1C2=O)C[C@@](O)(C(=O)CO)C[C@@H]3O[C@H]1C[C@H](N)[C@H](O)[C@H](C)O1 [Doxorubicin, doxorubicin, reference compound]
A) 37.8
